Target: P300 (Homo sapiens)
Construct: endogenous in cells; host or cells: 22Rv1 (ATCC CRL-2505) human prostate cancer cells
Sequence (Q09472 whole entry): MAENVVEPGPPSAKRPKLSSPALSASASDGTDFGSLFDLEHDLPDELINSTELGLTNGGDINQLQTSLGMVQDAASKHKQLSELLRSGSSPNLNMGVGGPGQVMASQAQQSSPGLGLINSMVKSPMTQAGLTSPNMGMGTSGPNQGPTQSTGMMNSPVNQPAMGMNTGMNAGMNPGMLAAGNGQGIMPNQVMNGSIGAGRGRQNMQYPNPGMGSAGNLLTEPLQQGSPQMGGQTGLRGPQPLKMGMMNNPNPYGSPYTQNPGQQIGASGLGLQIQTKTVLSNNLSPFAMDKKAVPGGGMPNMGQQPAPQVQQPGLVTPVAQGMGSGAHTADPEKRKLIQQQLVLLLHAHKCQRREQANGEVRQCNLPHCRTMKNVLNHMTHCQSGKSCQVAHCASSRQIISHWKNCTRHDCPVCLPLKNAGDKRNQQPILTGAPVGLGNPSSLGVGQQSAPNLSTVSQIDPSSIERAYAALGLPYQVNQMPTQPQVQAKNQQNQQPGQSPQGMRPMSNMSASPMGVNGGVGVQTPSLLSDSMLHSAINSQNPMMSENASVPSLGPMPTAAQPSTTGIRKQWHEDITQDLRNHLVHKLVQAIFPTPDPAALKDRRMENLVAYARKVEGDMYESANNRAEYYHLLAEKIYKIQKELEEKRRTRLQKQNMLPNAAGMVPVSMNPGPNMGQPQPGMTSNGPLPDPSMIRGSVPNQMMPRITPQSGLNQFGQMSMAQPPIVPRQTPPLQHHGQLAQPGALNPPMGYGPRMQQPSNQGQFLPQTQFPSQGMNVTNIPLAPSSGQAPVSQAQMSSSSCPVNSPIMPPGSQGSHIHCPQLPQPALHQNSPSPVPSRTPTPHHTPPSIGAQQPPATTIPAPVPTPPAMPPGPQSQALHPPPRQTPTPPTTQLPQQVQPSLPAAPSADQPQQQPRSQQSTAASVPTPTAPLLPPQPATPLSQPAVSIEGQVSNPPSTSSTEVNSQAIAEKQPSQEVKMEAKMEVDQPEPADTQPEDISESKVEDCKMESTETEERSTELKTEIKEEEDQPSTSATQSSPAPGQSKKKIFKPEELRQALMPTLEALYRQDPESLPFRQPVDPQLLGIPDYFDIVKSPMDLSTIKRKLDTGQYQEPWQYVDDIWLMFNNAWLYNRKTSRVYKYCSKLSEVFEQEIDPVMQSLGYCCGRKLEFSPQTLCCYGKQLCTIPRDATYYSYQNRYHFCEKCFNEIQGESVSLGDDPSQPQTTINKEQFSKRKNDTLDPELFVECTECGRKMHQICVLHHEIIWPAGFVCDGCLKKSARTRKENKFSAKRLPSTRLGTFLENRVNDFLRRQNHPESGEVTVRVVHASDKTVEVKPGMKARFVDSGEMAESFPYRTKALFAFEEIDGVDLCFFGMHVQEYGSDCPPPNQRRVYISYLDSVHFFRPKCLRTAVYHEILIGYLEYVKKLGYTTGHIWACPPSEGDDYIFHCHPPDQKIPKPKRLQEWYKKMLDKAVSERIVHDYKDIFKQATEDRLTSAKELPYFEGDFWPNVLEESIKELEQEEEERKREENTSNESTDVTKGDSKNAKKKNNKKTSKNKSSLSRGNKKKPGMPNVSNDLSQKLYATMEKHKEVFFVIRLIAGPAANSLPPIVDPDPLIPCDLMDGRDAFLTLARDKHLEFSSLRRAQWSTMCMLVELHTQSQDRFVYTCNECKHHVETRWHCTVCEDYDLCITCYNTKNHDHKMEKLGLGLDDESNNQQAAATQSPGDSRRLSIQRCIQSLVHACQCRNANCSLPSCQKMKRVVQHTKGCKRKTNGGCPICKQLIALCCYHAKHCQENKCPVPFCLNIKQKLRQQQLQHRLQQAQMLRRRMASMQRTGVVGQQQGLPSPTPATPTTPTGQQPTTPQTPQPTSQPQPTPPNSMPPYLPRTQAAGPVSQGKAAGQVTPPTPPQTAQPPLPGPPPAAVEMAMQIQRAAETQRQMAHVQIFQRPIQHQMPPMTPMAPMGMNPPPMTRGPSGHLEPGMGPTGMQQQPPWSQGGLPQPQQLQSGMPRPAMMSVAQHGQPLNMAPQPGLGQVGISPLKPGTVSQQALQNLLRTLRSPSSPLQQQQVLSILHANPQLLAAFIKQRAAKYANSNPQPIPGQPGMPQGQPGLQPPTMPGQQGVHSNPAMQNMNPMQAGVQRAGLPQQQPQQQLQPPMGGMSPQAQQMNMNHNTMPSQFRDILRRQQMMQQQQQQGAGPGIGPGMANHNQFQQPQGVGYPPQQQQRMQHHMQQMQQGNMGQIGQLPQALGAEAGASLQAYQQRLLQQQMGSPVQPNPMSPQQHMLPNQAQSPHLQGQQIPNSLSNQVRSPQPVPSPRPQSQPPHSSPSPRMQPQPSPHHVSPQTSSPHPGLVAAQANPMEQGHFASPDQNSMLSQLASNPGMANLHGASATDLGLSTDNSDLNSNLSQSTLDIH
Assay: P300 degradation in 22Rv1 cells (5 h)
Type: cell-based
Conditions: 22Rv1 cells, 5 h; read-out: P300 Degradation (22Rv1, 5 h) DCmax
Text: Biological Assays. […] Cells with 3-8 passages after purchase were used in experiments.
VALUE_KIND: Dmax

COMPOUND	Dmax
CC(=O)N1CCc2c(c(N3CCCc4cc(C5CCCCC5)c(C(F)F)cc43)nn2C2CCN(C(=O)CN3Cc4cc5c(cc4C3)C(=O)N(C3CCC(=O)NC3=O)C5=O)CC2)C1 (stereo not shown)	> 70%
CC(=O)N1CCc2c(c(N3CCCc4cc(Cl)c(C(F)F)cc43)nn2C2CCN(C(=O)CN3CCc4cc5c(cc4C3)C(=O)N(C3CCC(=O)NC3=O)C5=O)CC2)C1 (stereo not shown)	< 50%

Task item: Reported Dmax for CC(=O)N1CCc2c(c(N3CCCc4cc(-c5cnn(C)c5)c(C(F)F)cc43)nn2[C@H]2CC[C@H](CN3CCc4ccc5c(c4C3)C(=O)N(C3CCC(=O)NC3=O)C5=O)CC2)C1 (stereo partly shown) : what is it?
Reply: < 50%

Task item: Please give the measured Dmax for this compound: CC(=O)N1CCc2c(c(N3CCCc4cc(-c5cnn(C)c5)c(C(F)F)cc43)nn2C2CCN(CC3Cc4cc5c(cc4C3)C(=O)N(C3CCC(=O)NC3=O)C5=O)CC2)C1 (stereo not shown)
Reply: > 70%

----------
Target: P300 (Homo sapiens)
Construct: endogenous in cells; host or cells: 22Rv1 (ATCC CRL-2505) human prostate cancer cells
Assay: P300 degradation in 22Rv1 cells (5 h)
Format: cell-based
Conditions: 22Rv1 cells, 5 h; read-out: P300 Degradation (22Rv1, 5 h) DCmax
VALUE_KIND: Dmax

// solved cases for Dmax follow
MOLECULE	TARGET_OF_ASSAY	VALUE_KIND	RESULT_VALUE
Cn1cc(-c2cc3c(cc2C(F)F)N(c2nn(C4CCN(C(=O)CN5Cc6cc7c(cc6C5)C(=O)N(C5CCC(=O)NC5=O)C7=O)CC4)c4c2CNCC4)CCC3)cn1 (stereo not drawn)	P300 (Homo sapiens)	Dmax	< 50%
CC(=O)N1CCc2c(c(N3CCCc4cc(CCC5CC5)c(C(F)F)cc43)nn2C2CCN(C(=O)CN3Cc4cc5c(cc4C3)C(=O)N(C3CCC(=O)NC3=O)C5=O)CC2)C1 (stereo not drawn)	P300 (Homo sapiens)	Dmax	> 70%

Task item: Give its Dmax value. Item: CC(=O)N1CCc2c(c(N3CCCc4cc(-c5cnn(C)c5)c(C(F)F)cc43)nn2C[C@H]2CC[C@H](N3CCc4cc5c(cc4C3)C(=O)N(C3CCC(=O)NC3=O)C5=O)CC2)C1 (stereo partly drawn)
Reply: > 90%

Task item: Field request: Dmax | item: Cn1cc(-c2cc3c(cc2C(F)F)N(c2nn(C4CCN(C(=O)CN5Cc6cc7c(cc6C5)C(=O)N(C5CCC(=O)NC5=O)C7=O)CC4)c4c2CN(C(=O)C(F)F)CC4)CCC3)cn1 (stereo not drawn)
Reply: < 50%

Task item: Dear colleague, I am looking for the recorded Dmax of the following molecule: CC(=O)N1CCc2c(c(N3CCCc4cc(-c5cnn(C)c5)c(C(F)F)cc43)nn2[C@H]2CC[C@H](CN3CCc4cc5c(cc4C3)C(=O)N(C3CCC(=O)NC3=O)C5=O)CC2)C1 (stereo partly drawn)
Reply: > 70%

Task item: Recorded Dmax for Cn1cc(-c2cc3c(cc2C(F)F)N(c2nn(C4CCN(C(=O)CN5Cc6cc7c(cc6C5)C(=O)N(C5CCC(=O)NC5=O)C7=O)CC4)c4c2CN(CC(F)F)CC4)CCC3)cn1 (stereo not drawn) , please?
Reply: < 50%

Task item: // returns reported Dmax for input Cc1noc(C)c1-c1ccc2c(c1)nc([C@@H]1CCCC(=O)N1c1ccc(F)c(F)c1)n2C1CCN(C(=O)CN2Cc3cc4c(cc3C2)C(=O)N(C2CCC(=O)NC2=O)C4)CC1 (stereo partly drawn)
Reply: > 50%

Task item: Recorded Dmax of CC(=O)N1CCc2c(c(-c3cccc4ccccc34)nn2C2CCN(C(=O)CN3Cc4cc5c(cc4C3)C(=O)N(C3CCC(=O)NC3=O)C5=O)CC2)C1 (stereo not drawn) , please.
Reply: > 90%

Task item: Query: Dmax; subject: CC(=O)N1CCc2c(c(N3CCCc4cc(-c5cnn(C)c5)c(C(F)F)cc43)nn2C2CCC(C(C)CN3Cc4cc5c(cc4C3)C(=O)N(C3CCC(=O)NC3=O)C5=O)CC2)C1 (stereo not drawn)
Reply: > 90%

Task item: Please look up its Dmax: CC(=O)c1cc2c(cc1C(F)F)N(c1nn(C3CCN(C(=O)CN4Cc5cc6c(cc5C4)C(=O)N(C4CCC(=O)NC4=O)C6=O)CC3)c3c1CN(C(C)=O)CC3)CCC2 (stereo not drawn)
Reply: < 50%

Task item: Bench note: what Dmax did CC(=O)N1CCc2c(c(N3CCCc4cc(-c5cnn(C)c5)c(C(F)F)cc43)nn2C2CCC(CCN3CCc4cc5c(cc4C3)C(=O)N(C3CCC(=O)NC3=O)C5=O)CC2)C1 (stereo not drawn) show?
Reply: > 70%

Task item: Which Dmax is reported for this molecule? CC(=O)N1CCc2c(c(N3CCCc4cc(Cl)c(C(F)F)cc43)nn2C2CCN(C(=O)CN3Cc4cc5c(cc4C3)C(=O)N(C3CCC(=O)NC3=O)C5=O)CC2)C1 (stereo not drawn)
Reply: < 50%

----------
Molecular target: CBP (Homo sapiens, UniProt Q92793)
Construct: endogenous in cells; host or cells: 22Rv1 (ATCC CRL-2505) human prostate cancer cells
Sequence (Q92793 whole entry): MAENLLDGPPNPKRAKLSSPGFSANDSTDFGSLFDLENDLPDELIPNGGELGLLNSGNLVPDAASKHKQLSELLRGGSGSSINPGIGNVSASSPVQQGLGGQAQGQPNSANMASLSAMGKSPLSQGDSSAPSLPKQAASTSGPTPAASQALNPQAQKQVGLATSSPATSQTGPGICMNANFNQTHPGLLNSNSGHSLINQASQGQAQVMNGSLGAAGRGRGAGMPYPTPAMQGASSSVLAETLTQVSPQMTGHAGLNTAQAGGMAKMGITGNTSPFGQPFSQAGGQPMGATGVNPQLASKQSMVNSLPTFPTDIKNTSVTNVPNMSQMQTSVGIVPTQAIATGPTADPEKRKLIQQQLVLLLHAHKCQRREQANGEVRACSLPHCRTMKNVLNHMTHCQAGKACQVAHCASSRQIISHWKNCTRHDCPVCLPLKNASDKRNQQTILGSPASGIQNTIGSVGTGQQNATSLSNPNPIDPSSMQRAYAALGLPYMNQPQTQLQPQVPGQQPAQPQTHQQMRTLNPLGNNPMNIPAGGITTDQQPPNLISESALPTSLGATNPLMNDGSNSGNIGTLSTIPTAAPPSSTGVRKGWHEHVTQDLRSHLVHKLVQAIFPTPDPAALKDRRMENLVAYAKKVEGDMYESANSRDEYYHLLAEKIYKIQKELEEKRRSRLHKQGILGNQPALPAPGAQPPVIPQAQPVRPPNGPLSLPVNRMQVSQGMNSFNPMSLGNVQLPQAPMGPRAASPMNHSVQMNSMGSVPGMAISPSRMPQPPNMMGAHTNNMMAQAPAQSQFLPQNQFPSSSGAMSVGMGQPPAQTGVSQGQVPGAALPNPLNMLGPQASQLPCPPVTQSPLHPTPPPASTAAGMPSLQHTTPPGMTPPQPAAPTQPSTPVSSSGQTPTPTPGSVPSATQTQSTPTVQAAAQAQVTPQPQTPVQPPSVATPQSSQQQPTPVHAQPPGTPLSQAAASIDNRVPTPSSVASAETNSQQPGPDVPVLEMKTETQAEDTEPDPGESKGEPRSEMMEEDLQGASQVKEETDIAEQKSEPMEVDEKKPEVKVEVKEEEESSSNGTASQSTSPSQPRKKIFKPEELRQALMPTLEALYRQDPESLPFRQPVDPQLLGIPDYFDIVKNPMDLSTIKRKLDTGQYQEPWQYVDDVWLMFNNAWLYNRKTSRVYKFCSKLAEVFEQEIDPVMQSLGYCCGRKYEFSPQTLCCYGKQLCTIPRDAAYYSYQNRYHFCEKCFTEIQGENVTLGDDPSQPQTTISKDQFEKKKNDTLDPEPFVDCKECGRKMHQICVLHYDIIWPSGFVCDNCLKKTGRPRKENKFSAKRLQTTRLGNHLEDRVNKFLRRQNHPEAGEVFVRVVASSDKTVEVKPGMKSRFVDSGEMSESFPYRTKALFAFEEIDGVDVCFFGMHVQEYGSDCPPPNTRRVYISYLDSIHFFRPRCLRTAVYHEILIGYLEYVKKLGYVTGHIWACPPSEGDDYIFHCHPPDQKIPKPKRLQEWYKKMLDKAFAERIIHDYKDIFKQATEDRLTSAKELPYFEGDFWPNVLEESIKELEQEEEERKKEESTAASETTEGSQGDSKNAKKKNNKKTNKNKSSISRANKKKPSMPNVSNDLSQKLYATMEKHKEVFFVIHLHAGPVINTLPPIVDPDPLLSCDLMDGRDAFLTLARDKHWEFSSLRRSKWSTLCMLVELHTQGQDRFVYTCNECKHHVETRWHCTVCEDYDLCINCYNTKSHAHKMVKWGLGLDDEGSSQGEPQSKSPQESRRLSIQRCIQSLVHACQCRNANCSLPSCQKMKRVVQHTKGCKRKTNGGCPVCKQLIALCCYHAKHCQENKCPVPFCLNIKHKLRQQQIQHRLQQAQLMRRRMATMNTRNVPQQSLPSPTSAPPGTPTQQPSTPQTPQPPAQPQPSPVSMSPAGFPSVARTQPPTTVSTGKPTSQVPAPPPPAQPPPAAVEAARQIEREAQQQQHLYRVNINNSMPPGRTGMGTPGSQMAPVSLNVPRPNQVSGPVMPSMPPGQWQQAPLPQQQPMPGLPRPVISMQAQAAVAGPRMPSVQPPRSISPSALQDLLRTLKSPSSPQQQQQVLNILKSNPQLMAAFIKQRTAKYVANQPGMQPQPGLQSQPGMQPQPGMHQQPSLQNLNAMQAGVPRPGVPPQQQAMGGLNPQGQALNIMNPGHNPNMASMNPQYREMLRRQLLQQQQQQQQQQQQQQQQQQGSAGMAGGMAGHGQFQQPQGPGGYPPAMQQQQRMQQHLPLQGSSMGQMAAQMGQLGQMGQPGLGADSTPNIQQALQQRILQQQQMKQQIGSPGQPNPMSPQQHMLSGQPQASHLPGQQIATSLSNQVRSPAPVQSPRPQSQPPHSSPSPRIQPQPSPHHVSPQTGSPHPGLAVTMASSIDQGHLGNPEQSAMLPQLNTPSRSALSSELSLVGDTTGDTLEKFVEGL
Assay: CBP degradation in 22Rv1 cells (5 h)
Type: cell-based
Conditions: 22Rv1 cells, 5 h
VALUE_KIND: DC50

COMPOUND	TARGET_OF_ASSAY	VALUE_KIND	RESULT_VALUE
CC(=O)N1CCc2c(c(N3CCCc4cc(-c5ccccc5)c(C(F)F)cc43)nn2C2CCN(C(=O)CN3Cc4cc5c(cc4C3)C(=O)N(C3CCC(=O)NC3=O)C5=O)CC2)C1 (centres unmarked) [CP-022]	CBP (Homo sapiens, UniProt Q92793)	DC50	< 10 nM
CC(=O)N1CCc2c(c(N3CCCc4cc(-c5cnn(C)c5)c(C(F)F)cc43)nn2C2CCC(N3CC4(Cc5cc6c(cc5C4)C(=O)N(C4CCC(=O)NC4=O)C6=O)C3)CC2)C1 (centres unmarked) [CP-086]	CBP (Homo sapiens, UniProt Q92793)	DC50	< 10 nM
Cc1noc(C)c1-c1ccc2c(c1)nc([C@@H]1CCCC(=O)N1c1ccc(F)c(F)c1)n2C1CCN(C(=O)CN2Cc3cc4c(cc3C2)C(=O)N(C2CCC(=O)NC2=O)C4=O)CC1 (some centres unmarked) [CP-061]	CBP (Homo sapiens, UniProt Q92793)	DC50	< 100 nM

Task item: Returns the measured DC50 for the input compound. Input: CC(=O)N1CCc2c(c(N3CCCc4cc(-c5cnn(C)c5)c(C(F)F)cc43)nn2[C@H]2CC[C@H](CN3CCc4ccc5c(c4C3)C(=O)N(C3CCC(=O)NC3=O)C5=O)CC2)C1 (some centres unmarked) [CP-089]
Reply: > 1000 nM

Task item: Please give the measured DC50 for this compound: CC(=O)N1CCc2c(c(N3CCCc4cc(-c5cnn(CCCCN6CCc7cc8c(cc7C6)C(=O)N(C6CCC(=O)NC6=O)C8=O)c5)c(C(F)F)cc43)nn2C2CCOCC2)C1 (centres unmarked) [CP-070]
Reply: < 10 nM

----------
Biological target: CBP (Homo sapiens, UniProt Q92793)
Construct: endogenous in cells; host or cells: 22Rv1 (ATCC CRL-2505) human prostate cancer cells
Test: CBP degradation in 22Rv1 cells (5 h)
Format: cell-based
Settings: 22Rv1 cells, 5 h
VALUE_KIND: DC50

Solved cases (3 shown):
MOLECULE	TARGET_OF_ASSAY	RESULT_VALUE
CC(=O)N1Cc2c(N3CCCc4cc(-c5cnn(C)c5)c(C(F)F)cc43)nn(C3CCN(C(=O)CN4Cc5cc6c(cc5C4)C(=O)N(C4CCC(=O)NC4=O)C6=O)CC3)c2C(C)(C)C1 (stereo not shown) [CP-084]	CBP (Homo sapiens, UniProt Q92793)	> 1000 nM
CC(=O)N1CCc2c(c(N3CCCc4cc(-c5cnn(C)c5)c(C(F)F)cc43)nn2[C@H]2CC[C@H](CN3Cc4cc5c(cc4C3)C(=O)N(C3CCC(=O)NC3=O)C5)CC2)C1 (stereo partly shown) [CP-048]	CBP (Homo sapiens, UniProt Q92793)	< 10 nM
CC(=O)N1CCc2c(c(N3CCCc4cc(-c5cnn(C)c5)c(C(F)F)cc43)nn2C2CCC(C(=O)N3Cc4cc5c(cc4C3)C(=O)N(C3CCC(=O)NC3=O)C5=O)CC2)C1 (stereo not shown) [CP-033]	CBP (Homo sapiens, UniProt Q92793)	< 10 nM

Attention now shifts to the item below.
Task item: Query: DC50; subject: CC(=O)N1CCc2c(c(N3CCCc4cc(C5CC5)c(C(F)F)cc43)nn2C2CCN(C(=O)CN3Cc4cc5c(cc4C3)C(=O)N(C3CCC(=O)NC3=O)C5=O)CC2)C1 (stereo not shown) [CP-013]
Reply: < 10 nM
